Hi there, I'd appreciate the recorded koff for every entry that follows.
- target-desc: T1, soluble human GPNMB (recombinant extracellular domain) (human, UniProt Q14956 23-498)
- T1 construct: also called huGPNMB; recombinant human GPNMB extracellular domain; not shown: C-terminal polyhistidine or Avi-His tag
- T1 sequence: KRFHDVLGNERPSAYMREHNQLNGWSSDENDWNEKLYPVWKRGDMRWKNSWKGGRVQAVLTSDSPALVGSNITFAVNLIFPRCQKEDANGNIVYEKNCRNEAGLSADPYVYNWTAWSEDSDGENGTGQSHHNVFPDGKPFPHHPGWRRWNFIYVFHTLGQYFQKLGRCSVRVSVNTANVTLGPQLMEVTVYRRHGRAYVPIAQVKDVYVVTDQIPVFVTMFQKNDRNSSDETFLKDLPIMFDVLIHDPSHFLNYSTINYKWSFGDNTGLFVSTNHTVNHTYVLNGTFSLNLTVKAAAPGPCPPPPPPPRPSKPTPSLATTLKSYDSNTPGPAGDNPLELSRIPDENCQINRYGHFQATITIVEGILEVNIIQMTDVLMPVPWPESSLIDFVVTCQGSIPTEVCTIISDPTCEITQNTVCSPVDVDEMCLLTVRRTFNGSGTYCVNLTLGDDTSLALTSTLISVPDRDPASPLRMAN
- experiment-notes: SPR Biacore, IgG captured
Numbers only, in s⁻¹.

// known answers, use as guide
• anti-GPNMB antibody GPN-93 (antibody, V domains shown) VH: QVQLVQSGAEVKKPGASVKVSCKASGYTFTSYWMHWVRQAPGQGLEWMGEINPYDQRTNYAQKFQGRVTMTVDKSTSTVYMELSSLRSEDTAVYYCARSTGNYAWFAYWGQGTLVTVSS VL: DIVMTQSPDSLAVSLGERATINCKTSQDVSPSLAWYQQKPGQPPKLLIYSASKRYTGVPDRFSGSGSGTDFTLTISSLQAEDVAVYYCQQHYSIPLQFGGGTKVEIK = 0.00059
• anti-GPNMB antibody GPN-98 (antibody, V domains shown) VH: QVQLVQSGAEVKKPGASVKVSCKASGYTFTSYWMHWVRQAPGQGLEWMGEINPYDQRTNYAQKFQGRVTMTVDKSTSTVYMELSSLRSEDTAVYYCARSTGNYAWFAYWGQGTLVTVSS VL: DIVMTQSPDSLAVSLGERATINCKASQDVSPSLAWYQQKPGQPPKLLIYSASYRYTGVPDRFSGSGSGTDFTLTISSLQAEDVAVYYCQQHYSIPLTFGGGTKVEIK = 0.00091
• anti-GPNMB antibody GPN-91 (antibody, V domains shown) VH: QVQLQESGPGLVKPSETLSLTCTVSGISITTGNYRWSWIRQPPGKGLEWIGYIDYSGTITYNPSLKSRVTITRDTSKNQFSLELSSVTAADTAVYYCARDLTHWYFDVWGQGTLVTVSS VL: DIVMTQSPDSLAVSLGERATINCKSSRSVDYYGIGFLNWYQQKPGQPPKLLIYATSHQGSGVPDRFSGSGSGTDFTLTISSLQAEDVAVYYCQQQKERPPTFGGGTKVEIK = 0.00053

Exam item: Read off the recorded koff for anti-GPNMB antibody GPN-89 (antibody, V domains shown) VH: QVQLQESGPGLVKPSETLSLTCTVSGISITTGNYRWSWIRQPPGKGLEWIGYIDYSGTITYNPSLKSRVTITRDTSKNQFSLELSSVTAADTAVYYCARDLTHWYYDVWGQGTLVTVSS VL: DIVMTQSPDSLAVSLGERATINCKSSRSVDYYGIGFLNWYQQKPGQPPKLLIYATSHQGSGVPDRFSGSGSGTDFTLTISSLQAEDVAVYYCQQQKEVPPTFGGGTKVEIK
Marked response: 0.00057
